- SYSTEM_TESTED: CBP (Homo sapiens)
- Construct: host or cells: A549 CBP HiBit cells
- Sequence (Q92793 whole entry): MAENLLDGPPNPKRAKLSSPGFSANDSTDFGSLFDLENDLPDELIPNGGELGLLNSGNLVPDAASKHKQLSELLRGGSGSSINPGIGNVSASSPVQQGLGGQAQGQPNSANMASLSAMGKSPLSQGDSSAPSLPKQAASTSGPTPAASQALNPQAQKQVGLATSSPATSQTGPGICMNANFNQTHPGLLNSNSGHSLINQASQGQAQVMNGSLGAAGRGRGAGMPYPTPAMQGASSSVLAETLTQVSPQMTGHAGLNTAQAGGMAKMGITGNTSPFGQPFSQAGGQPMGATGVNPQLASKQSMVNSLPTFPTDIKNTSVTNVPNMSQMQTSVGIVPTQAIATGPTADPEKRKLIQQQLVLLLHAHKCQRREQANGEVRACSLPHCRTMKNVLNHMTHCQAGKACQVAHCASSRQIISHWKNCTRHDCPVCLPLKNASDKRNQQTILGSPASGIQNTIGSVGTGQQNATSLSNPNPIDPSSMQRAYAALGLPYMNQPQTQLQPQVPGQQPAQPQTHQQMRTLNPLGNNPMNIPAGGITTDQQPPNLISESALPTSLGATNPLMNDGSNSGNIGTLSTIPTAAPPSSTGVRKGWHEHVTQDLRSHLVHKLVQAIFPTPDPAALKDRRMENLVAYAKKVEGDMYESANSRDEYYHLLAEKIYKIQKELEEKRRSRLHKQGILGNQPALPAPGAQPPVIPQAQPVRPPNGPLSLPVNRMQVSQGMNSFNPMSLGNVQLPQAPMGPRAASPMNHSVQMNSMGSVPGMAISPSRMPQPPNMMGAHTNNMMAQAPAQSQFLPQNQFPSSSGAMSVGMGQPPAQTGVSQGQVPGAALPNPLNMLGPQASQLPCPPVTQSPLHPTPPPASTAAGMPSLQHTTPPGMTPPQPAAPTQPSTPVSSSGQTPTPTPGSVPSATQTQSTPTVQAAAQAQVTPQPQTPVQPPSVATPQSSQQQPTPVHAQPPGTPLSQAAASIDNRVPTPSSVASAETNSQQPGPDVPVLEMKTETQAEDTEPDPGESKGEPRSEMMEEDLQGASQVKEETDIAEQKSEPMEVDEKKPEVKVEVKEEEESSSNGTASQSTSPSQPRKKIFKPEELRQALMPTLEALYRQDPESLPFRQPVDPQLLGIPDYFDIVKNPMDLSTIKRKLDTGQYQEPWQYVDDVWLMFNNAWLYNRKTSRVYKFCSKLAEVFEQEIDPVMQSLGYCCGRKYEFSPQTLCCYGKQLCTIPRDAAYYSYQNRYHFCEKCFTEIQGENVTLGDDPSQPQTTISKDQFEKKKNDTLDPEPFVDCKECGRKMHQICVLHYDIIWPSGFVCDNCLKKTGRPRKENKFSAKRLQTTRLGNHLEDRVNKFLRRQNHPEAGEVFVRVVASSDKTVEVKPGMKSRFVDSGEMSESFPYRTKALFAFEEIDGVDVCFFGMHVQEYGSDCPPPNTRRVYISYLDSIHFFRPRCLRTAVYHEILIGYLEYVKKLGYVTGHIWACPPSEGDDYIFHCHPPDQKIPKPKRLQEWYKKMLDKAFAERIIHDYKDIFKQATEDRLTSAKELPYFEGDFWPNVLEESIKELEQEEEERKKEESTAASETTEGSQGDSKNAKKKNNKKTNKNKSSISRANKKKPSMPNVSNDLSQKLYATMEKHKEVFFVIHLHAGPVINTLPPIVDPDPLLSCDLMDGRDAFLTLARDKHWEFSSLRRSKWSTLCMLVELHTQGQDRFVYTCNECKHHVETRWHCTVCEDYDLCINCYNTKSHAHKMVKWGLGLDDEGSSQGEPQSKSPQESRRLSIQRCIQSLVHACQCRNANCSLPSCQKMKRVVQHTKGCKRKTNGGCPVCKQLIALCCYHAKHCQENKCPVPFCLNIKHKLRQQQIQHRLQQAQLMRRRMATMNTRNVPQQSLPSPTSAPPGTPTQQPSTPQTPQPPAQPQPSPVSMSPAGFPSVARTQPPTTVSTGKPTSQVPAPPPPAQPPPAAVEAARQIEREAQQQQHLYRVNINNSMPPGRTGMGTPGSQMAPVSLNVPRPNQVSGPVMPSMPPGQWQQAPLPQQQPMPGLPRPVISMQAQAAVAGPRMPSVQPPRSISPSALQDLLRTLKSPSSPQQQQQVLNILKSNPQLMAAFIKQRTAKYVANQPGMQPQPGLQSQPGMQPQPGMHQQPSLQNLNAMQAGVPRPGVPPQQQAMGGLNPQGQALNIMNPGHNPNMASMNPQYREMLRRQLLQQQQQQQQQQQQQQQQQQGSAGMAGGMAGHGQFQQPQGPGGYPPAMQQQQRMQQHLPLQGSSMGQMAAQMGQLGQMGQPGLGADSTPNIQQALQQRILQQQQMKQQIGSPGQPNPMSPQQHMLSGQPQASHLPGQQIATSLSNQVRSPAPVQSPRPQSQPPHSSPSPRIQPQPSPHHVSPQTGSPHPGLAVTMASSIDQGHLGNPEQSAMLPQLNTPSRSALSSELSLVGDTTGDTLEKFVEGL
- TEST_DETAILS: CBP degradation, HiBit technology in A549 CBP HiBit cells (24 h)
- Assay type: cell-based
- CONDITIONS_USED: 24 hrs post treatment
Listing: DC50 of selected compounds

So for Cc1cc2c(-c3cccc4cc(-c5ccc(C(=O)NCC#Cc6cc7c(C8CCC(=O)NC8=O)cccc7o6)nc5)ncc34)nc(N3CCOCC3)cc2n(C)c1=O (stereo not drawn) , the logged DC50 turned out to be > 1000 nM

So for Cc1cc2c(N3CCCc4nc(-c5ccc(C(=O)NCC#Cc6cc7c(C8CCC(=O)NC8=O)nccc7s6)nc5)ncc43)cc(C3CCOCC3)cc2n(C)c1=O (stereo not drawn) , the logged DC50 turned out to be 10 to 99 nM

So for Cc1cc2c(-c3cccc4cc(-c5ccc(C(=O)NCC#Cc6ccc7occ(C8CCC(=O)NC8=O)c7c6)nc5)ncc34)nc(C3CCOCC3)cc2n(C)c1=O (stereo not drawn) , the logged DC50 turned out to be > 1000 nM

So for CCc1cc(N(C)c2ccc(-c3cnc(C(=O)NCC#Cc4cccc(NC5CCC(=O)NC5=O)c4)c(C)c3)nc2)c2cc(C)c(=O)n(C)c2c1 (stereo not drawn) , the logged DC50 turned out to be 100 to 999 nM

So for CC(C)c1cc(N2CCCc3cc(-c4ccc(C(=O)NCC#Cc5ccc6occ(C7CCC(=O)NC7=O)c6c5)nc4)ncc32)cc2c1n(C)c(=O)n2C (stereo not drawn) , the logged DC50 turned out to be 10 to 99 nM

So for Cc1cc2c(N3CCN(C)c4nc(-c5ccc(C(=O)NCC#Cc6ccc7occ(C8CCC(=O)NC8=O)c7c6)nc5)ncc43)cc(C3CCOCC3)cc2n(C)c1=O (stereo not drawn) , the logged DC50 turned out to be 1 to 9.9 nM

So for CC(C)c1cc(-c2cccc3cc(-c4ccc(C(=O)NCC#Cc5ccc6ncc(C7CCC(=O)NC7=O)n6c5)nc4)ncc23)cc2c1n(C)c(=O)n2C (stereo not drawn) , the logged DC50 turned out to be 100 to 999 nM

So for CC(C)c1cc(-c2cccc3cc(-c4ccc(C(=O)NCC#Cc5ccc6cnn(C7CCC(=O)NC7=O)c6c5Cl)nc4)ncc23)cc2c1n(C)c(=O)n2C (stereo not drawn) , the logged DC50 turned out to be 100 to 999 nM

So for Cc1cc(-c2cc3c(cn2)N(c2cc(C(C)C)c4c(c2)n(C)c(=O)n4C)CCC3)cnc1C(=O)NCC#Cc1ccn2ncc(C3CCC(=O)NC3=O)c2c1 (stereo not drawn) , the logged DC50 turned out to be 1 to 9.9 nM

###

- SYSTEM_TESTED: p300 (Homo sapiens, UniProt Q09472)
- Construct: host or cells: A549 P300 HiBit cells
- Sequence (Q09472 whole entry): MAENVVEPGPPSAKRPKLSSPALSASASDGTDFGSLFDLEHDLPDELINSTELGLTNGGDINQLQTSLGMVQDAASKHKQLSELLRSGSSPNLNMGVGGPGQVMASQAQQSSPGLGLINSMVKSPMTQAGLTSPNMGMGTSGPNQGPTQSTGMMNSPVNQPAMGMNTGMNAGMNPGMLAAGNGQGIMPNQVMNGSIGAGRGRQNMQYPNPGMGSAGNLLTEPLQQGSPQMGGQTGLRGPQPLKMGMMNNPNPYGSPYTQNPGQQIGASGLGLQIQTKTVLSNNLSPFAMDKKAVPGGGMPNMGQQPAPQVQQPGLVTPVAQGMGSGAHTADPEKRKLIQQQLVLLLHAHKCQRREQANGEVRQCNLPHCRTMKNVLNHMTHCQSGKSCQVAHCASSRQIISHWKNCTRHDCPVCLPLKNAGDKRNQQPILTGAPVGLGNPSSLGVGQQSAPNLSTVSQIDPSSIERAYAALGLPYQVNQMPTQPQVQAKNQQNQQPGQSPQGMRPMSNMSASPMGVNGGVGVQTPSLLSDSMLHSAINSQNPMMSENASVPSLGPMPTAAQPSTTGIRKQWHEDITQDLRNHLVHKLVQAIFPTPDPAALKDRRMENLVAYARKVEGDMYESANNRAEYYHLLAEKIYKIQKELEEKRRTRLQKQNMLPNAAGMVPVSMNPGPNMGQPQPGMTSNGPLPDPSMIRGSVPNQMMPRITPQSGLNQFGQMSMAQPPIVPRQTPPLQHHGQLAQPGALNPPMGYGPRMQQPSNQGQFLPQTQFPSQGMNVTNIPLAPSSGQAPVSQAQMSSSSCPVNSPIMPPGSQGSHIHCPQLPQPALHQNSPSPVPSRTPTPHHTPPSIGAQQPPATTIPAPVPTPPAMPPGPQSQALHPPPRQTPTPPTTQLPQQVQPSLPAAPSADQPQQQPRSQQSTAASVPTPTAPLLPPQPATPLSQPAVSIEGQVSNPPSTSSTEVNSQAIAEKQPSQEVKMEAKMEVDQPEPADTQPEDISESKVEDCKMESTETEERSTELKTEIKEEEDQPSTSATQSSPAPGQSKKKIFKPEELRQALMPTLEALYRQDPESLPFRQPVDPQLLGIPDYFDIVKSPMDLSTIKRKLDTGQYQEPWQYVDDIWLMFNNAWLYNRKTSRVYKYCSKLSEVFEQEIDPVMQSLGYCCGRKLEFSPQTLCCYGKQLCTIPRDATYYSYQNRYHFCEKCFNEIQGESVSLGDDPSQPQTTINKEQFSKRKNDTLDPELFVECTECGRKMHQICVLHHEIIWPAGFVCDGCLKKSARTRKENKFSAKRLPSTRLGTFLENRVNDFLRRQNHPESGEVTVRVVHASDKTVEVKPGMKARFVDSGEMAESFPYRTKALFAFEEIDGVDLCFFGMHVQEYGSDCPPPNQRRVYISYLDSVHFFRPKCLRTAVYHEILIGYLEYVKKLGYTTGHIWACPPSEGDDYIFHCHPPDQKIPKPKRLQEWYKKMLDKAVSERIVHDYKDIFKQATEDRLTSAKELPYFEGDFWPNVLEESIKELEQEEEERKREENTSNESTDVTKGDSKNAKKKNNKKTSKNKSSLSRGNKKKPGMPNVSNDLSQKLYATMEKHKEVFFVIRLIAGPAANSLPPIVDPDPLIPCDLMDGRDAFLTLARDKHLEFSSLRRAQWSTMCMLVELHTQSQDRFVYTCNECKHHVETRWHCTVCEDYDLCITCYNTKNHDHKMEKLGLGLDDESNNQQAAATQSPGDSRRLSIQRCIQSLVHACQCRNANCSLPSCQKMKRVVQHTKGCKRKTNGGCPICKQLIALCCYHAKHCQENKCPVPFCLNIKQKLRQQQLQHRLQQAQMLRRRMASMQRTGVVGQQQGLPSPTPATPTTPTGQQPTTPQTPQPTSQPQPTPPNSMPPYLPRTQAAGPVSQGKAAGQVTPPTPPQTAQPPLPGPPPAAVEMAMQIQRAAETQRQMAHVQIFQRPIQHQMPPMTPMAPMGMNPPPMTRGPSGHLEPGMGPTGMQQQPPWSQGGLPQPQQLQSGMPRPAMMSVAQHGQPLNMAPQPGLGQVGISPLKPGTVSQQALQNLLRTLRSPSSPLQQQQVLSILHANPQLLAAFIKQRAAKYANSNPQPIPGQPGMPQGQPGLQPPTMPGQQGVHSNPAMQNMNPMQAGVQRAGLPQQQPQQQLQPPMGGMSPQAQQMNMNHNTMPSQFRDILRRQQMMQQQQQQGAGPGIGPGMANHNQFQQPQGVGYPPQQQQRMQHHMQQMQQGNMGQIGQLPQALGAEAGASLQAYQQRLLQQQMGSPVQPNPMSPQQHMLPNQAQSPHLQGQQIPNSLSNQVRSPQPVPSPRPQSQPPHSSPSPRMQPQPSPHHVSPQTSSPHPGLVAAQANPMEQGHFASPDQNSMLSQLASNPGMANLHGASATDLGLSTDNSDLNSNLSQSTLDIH
- TEST_DETAILS: P300 degradation, HiBit technology in A549 P300 HiBit cells (2 h)
- Format: cell-based
- CONDITIONS_USED: A549 P300 HiBit cells, 2 hrs post treatment
ATTRIBUTE_MEASURED: DC50

Example entries and their recorded answers appear below.
COMPOUND | DC50
CC(C)c1cc(-c2cccc3cc(-c4ccc(C(=O)NCC#Cc5ccc6ccnc(C7CCC(=O)NC7=O)c6c5)nc4)ncc23)cc2c1n(C)c(=O)n2C (stereo not drawn) | 10 to 99 nM
CCn1c(=O)n(C)c2ccc(N3CCOc4nc(-c5ccc(C(=O)NCC#Cc6ccc7occ(C8CCC(=O)NC8=O)c7c6)nc5)ncc43)cc21 (stereo not drawn) | 1 to 9.9 nM
COC1CN(c2cc3c(cc(C)c(=O)n3C)c(-c3cccc4cc(-c5ccc(C(=O)NCC#Cc6ccc7occ(C8CCC(=O)NC8=O)c7c6)nc5)ncc34)n2)C1 (stereo not drawn) | 1 to 9.9 nM

So for CN1Cc2c(-c3cccc4cc(-c5ccc(C(=O)NCC#Cc6ccc7cnn(C8CCC(=O)NC8=O)c7c6)nc5)ncc34)cc(C(C)(F)F)cc2N(C)C1=O (stereo not drawn) [Example B111] , the logged DC50 turned out to be 1 to 9.9 nM

So for Cn1c(=O)ccc2c(N3CCCc4nc(-c5ccc(C(=O)NCC#Cc6ccc7occ(C8CCC(=O)NC8=O)c7c6)nc5)ncc43)cc(C3CCOCC3)cc21 (stereo not drawn) , the logged DC50 turned out to be > 1000 nM

So for CC(C)c1cc(-c2cccc3cc(-c4ccc(C(=O)NCC#Cc5cc6c(C7CCC(=O)NC7=O)coc6cc5F)nc4)ncc23)cc2c1n(C)c(=O)n2C (stereo not drawn) , the logged DC50 turned out to be 1 to 9.9 nM

###

Listing: Dmax of selected compounds
- SYSTEM_TESTED: p300 (Homo sapiens, UniProt Q09472)
- Construct: host or cells: A549 P300 HiBit cells
- TEST_DETAILS: P300 degradation, HiBit technology in A549 P300 HiBit cells (2 h)
- Assay type: cell-based
- CONDITIONS_USED: A549, A549 P300 HiBit cells, 2 hrs post treatment

So for CCc1cc(N(C)c2ccc(-c3cnc(C(=O)NCC#Cc4cccc(NC5CCC(=O)NC5=O)c4)c(C)c3)c(C)c2)c2cc(C)c(=O)n(C)c2c1 (stereo not drawn) , the logged Dmax turned out to be > 80%

###

Listing: Dmax of selected compounds
- SYSTEM_TESTED: p300 (Homo sapiens)
- Construct: host or cells: A549 P300 HiBit cells
- TEST_DETAILS: P300 degradation, HiBit technology in A549 P300 HiBit cells (2 h)
- Format: cell-based
- CONDITIONS_USED: A549, A549 P300 HiBit cells, 2 hrs post treatment

COMPOUND | RESULT
Cc1cc(-c2cc3c(cc2F)N(c2cccc4c2cc(C)c(=O)n4C)CCO3)cnc1C(=O)NCC#Cc1ccc2occ(C3CCC(=O)NC3=O)c2c1 (stereo not drawn) | > 80%
Cc1cc(-c2ccc(Nc3cc4c(c(C(C)C)n3)n(C)c(=O)n4C)cn2)cnc1C(=O)NCC#Cc1ccc2occ(C3CCC(=O)NC3=O)c2c1 (stereo not drawn) | < 20%
Cc1cc2c(N3CCCc4cc(-c5ccc(C(=O)NCC#Cc6cc7c(C8CCC(=O)NC8=O)nccc7o6)nc5)nnc43)cc(C3CCOCC3)cc2n(C)c1=O (stereo not drawn) | > 80%
Cn1c(=O)n(C)c2c(N3CCOCC3)nc(-c3cccc4cc(-c5ccc(C(=O)NCC#Cc6cc7c(C8CCC(=O)NC8=O)cccc7o6)nc5)ncc34)cc21 (stereo not drawn) | > 80%

So for CC(C)c1cc(N2CCN(C)c3cc(-c4ccc(C(=O)NCC#Cc5cccc(NC6CCC(=O)NC6=O)c5)nc4)ncc32)cc2c1n(C)c(=O)n2C (stereo not drawn) , the logged Dmax turned out to be > 80%

So for Cn1c(=O)n(C)c2c(N3CC4(COC4)C3)nc(-c3cccc4cc(-c5ccc(C(=O)NCC#Cc6ccc7occ(C8CCC(=O)NC8=O)c7c6)nc5)ncc34)cc21 (stereo not drawn) , the logged Dmax turned out to be > 80%

So for Cc1cc(-c2ncc3c(n2)CCCN3c2cc(C)c3c(c2)n(C)c(=O)n3C)cnc1C(=O)NCC#Cc1cc2c(C3CCC(=O)NC3=O)cccc2o1 (stereo not drawn) , the logged Dmax turned out to be > 80%

So for Cc1cc(N2CCCc3nc(-c4ccc(C(=O)NCC#Cc5cc6c(C7CCC(=O)NC7=O)nccc6o5)nc4)ncc32)c2cc(C)c(=O)n(C)c2c1 (stereo not drawn) , the logged Dmax turned out to be > 80%

So for CCc1cc(N2CCOc3cc(-c4ccc(C(=O)NCC#Cc5ccc6occ(C7CCC(=O)NC7=O)c6c5)nc4)c(F)cc32)c2cc(C)c(=O)n(C)c2c1 (stereo not drawn) , the logged Dmax turned out to be > 80%

So for CC(C)c1cc(-c2ncc(N(C)c3cc(C(C)C)c4c(c3)n(C)c(=O)n4C)cn2)cnc1C(=O)NCC#Cc1ccc2occ(C3CCC(=O)NC3=O)c2c1 (stereo not drawn) , the logged Dmax turned out to be > 80%

So for CC(C)c1cc(-c2cccc3cc(-c4ccc(C(=O)NCC#Cc5ccc6cnn(C7CCC(=O)NC7=O)c6n5)nc4)ncc23)cc2c1n(C)c(=O)n2C (stereo not drawn) , the logged Dmax turned out to be 20 to 39%

So for Cn1c(=O)ccc2c(N3CCCc4nc(-c5ccc(C(=O)NCC#Cc6ccc7occ(C8CCC(=O)NC8=O)c7c6)nc5)ncc43)cc(C3CCOCC3)cc21 (stereo not drawn) , the logged Dmax turned out to be < 20%

###

Listing: DC50 of selected molecules
- SYSTEM_TESTED: p300 (Homo sapiens)
- Construct: host or cells: A549 P300 HiBit cells
- TEST_DETAILS: P300 degradation, HiBit technology in A549 P300 HiBit cells (2 h)
- Format: cell-based
- CONDITIONS_USED: A549 P300 HiBit cells, 2 hrs post treatment

MOLECULE | RESULT
Cc1cc2c(N3CCCc4nc(-c5ccc(C(=O)NCC#Cc6ccc7occ(C8CCC(=O)NC8=O)c7c6)nc5)ncc43)cc(C3CCOCC3)nc2n(C)c1=O (stereo not drawn) [Example B76] | 1 to 9.9 nM
Cc1cc(-c2ccc(N(C)c3cc(C(C)C)c4c(c3)n(C)c(=O)n4C)cn2)cnc1C(=O)NCC#Cc1cccc(NC2CCC(=O)NC2=O)c1 (stereo not drawn) [Example A34] | 10 to 99 nM

Could you now look at the following molecule, please?
So for Cn1nc(C2CCC(=O)NC2=O)c2cc(C#CCNC(=O)c3ccc(-c4ncc5c(n4)OCCN5c4ccc5c(c4)n(C)c(=O)n5C)cn3)ccc21 (stereo not drawn) [Example A243] , the logged DC50 turned out to be 1 to 9.9 nM
